- assay_system: hERG (KCNH2) (Homo sapiens, UniProt Q12809)
- Sequence (Q12809 whole entry): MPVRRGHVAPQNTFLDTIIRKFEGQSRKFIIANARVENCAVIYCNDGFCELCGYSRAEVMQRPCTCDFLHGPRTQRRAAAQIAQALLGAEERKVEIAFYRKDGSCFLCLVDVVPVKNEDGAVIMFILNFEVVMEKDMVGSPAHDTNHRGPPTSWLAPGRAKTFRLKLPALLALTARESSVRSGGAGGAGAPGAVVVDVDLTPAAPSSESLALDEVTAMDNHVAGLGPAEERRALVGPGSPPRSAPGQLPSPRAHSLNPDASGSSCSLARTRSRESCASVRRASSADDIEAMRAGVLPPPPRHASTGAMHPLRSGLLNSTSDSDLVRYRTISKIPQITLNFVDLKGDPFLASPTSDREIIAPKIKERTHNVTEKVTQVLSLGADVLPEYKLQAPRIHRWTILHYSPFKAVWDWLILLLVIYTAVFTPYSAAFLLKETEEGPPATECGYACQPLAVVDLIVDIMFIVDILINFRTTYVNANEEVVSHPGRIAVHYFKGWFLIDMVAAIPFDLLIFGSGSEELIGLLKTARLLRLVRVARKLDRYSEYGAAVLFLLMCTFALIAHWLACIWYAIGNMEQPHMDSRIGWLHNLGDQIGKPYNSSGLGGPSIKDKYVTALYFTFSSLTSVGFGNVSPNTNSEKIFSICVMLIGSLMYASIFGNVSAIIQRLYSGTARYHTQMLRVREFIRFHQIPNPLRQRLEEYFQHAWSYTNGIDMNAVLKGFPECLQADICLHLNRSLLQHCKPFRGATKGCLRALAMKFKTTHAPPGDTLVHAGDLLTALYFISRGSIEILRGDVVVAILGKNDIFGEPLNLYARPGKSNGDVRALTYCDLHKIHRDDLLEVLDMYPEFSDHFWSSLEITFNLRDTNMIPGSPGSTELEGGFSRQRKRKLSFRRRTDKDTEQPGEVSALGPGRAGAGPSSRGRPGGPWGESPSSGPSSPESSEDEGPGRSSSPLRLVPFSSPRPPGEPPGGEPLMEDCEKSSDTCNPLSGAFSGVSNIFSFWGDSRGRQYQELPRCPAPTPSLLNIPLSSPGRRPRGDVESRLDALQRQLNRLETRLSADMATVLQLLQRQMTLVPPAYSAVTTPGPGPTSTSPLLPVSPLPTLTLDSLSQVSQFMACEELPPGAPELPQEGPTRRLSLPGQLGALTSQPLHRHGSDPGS
- assay_protocol: Inhibition of human ERG expressed in HEK293 cells assessed as decrease in channel current at 3 uM after 3 mins at -80 mV holding potential by automated patch-clamp electrophysiology assay
- Assay type: cell-based
- experimental_setup: HEK293 cells that express hERG
# binarize inhibition at 0.05 h, 3 µM: threshold 10% inclusive, high side fulfilled, low side not fulfilled

compound	category
CCC(=O)O[C@@H]1[C@@H]2[C@@H](OC(C)=O)[C@@]34CO[C@@](C)([C@H](OC(C)=O)[C@@]2(OC(C)=O)C[C@@H]1C)[C@@H]3[C@@H](C(C)(C)OC(C)=O)C=CC4=O	not fulfilled
CC(=O)O[C@@H]1C[C@H]2[C@@H]([C@@H]3[C@]1(COC(=O)c1cccnc1)[C@H](OC(=O)c1ccccc1)[C@H]1[C@@H](OC(=O)C(C)C)[C@@H](C)C[C@]1(O)C(=O)[C@@]3(C)OC(C)=O)C2(C)C	fulfilled
CCC(C)C(=O)O[C@H]1C(=O)[C@@]23CO[C@@](C)([C@H](OC(C)=O)[C@@]4(OC(C)=O)C[C@](C)(OC(=O)c5cccnc5)[C@H](OC(=O)C(C)C)[C@@H]4[C@H]2OC(C)=O)[C@@H]3[C@@H]2[C@H]1C[C@]2(C)OC(C)=O (some centres undefined)	fulfilled
CC(=O)OC[C@@]12[C@H](OC(=O)c3ccccc3)[C@H]3[C@@H](OC(=O)C(C)C)[C@@H](C)C[C@]3(OC(C)=O)C(=O)[C@@]3(C)OC(C)(C)[C@@H](C=C[C@H]1OC(C)=O)[C@H]23	fulfilled
CCC(=O)O[C@@H]1[C@@H]2[C@@H](OC(C)=O)[C@@]34CO[C@@](C)([C@H](OC(C)=O)[C@@]2(OC(C)=O)C[C@]1(C)OC(=O)c1ccccc1)[C@@H]3[C@@H]1[C@@H](C[C@]1(C)OC(C)=O)[C@@H](OC(=O)C(C)CC)C4=O (some centres undefined)	fulfilled

Textbook exercise: given the entry CCC(C)C(=O)O[C@H]1C(=O)[C@@]23CO[C@@](C)([C@H](OC(C)=O)[C@@]4(OC(C)=O)C[C@](C)(O)[C@H](OC(=O)C(C)C)[C@@H]4[C@H]2OC(C)=O)[C@@H]3[C@@H]2[C@H]1C[C@]2(C)OC(C)=O (some centres undefined) , state whether its inhibition at 0.05 h, 3 µM is greater than or equal to 10%.
fulfilled

Textbook exercise: given the entry CC(=O)O[C@@H]1C=C[C@H]2[C@@H]3[C@]1(COC(=O)C(C)C)[C@H](OC(=O)c1ccccc1)[C@H]1[C@@H](OC(=O)C(C)C)[C@@H](C)C[C@]1(O)C(=O)[C@@]3(C)OC2(C)C , state whether its inhibition at 0.05 h, 3 µM is greater than or equal to 10%.
fulfilled

Textbook exercise: given the entry CC(=O)OC1O[C@@]2(C)[C@H](OC(=O)c3ccccc3)[C@@]3(OC(C)=O)C[C@H](C)[C@H](OC(=O)C(C)C)[C@@H]3[C@@H](OC(C)=O)[C@@]13[C@H](OC(=O)c1cccnc1)C[C@H]1[C@@H]([C@@H]23)C1(C)C (some centres undefined) , state whether its inhibition at 0.05 h, 3 µM is greater than or equal to 10%.
fulfilled

Textbook exercise: given the entry CCC(C)C(=O)O[C@H]1C(=O)[C@@]23CO[C@@](C)([C@H](OC(C)=O)[C@@]4(OC(C)=O)C[C@H](C)[C@H](OC(=O)c5cccnc5)[C@@H]4[C@H]2OC(C)=O)[C@@H]3[C@@H]2[C@H]1C[C@]2(C)OC(C)=O (some centres undefined) , state whether its inhibition at 0.05 h, 3 µM is greater than or equal to 10%.
not fulfilled
